organism: Homo sapiens; assay: Selectivity ratio of Kb for human adrenergic alpha1A receptor to Kb for human 5-HT2A receptor
Test Readout: Selectivity ratio
API note: the answer field is a bare number with no unit suffix.

IN: Which Selectivity ratio value belongs to `COc1cc2c3c(c1OC)-c1ccccc1C[C@H]3N(C)CC2` ?
OUT: 1

###

target: Alpha-1B adrenergic receptor (Homo sapiens)
Sequence (P35368 whole entry): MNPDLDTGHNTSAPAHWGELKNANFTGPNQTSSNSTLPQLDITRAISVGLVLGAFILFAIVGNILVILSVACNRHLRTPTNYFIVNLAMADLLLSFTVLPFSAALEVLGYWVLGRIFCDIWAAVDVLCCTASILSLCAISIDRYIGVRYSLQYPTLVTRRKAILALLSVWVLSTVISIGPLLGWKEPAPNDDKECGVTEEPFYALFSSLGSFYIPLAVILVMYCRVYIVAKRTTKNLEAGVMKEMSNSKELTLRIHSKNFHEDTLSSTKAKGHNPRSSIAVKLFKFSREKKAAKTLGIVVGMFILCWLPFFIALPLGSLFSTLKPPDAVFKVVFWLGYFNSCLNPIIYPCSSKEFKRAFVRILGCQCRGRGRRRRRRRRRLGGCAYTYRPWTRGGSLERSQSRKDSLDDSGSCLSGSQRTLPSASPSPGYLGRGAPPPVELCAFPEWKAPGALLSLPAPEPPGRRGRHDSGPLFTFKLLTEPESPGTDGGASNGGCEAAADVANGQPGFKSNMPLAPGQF
Test Readout: pKi
Remember the convention: pKi equals -log10 of concentration in molar.

IN: Which pKi value belongs to `CN1CCc2cc3c(c4c2[C@H]1Cc1ccccc1-4)OCO3` ?
OUT: 5.50

###

Measured Selectivity ratio accompanies every entry in the list below.
species: Homo sapiens; assay: Selectivity ratio of Kb for human adrenergic alpha1B receptor to Kb for human adrenergic alpha1A receptor
API note: the answer field is a bare number with no unit suffix.

IN: Which Selectivity ratio value belongs to `CN1CCc2cc3c(c4c2[C@@H]1Cc1ccccc1-4)OCO3` ?
OUT: 2

IN: Which Selectivity ratio value belongs to `COc1cc2c3c(c1OC)-c1ccccc1C[C@@H]3N(C)CC2` ?
OUT: 5

IN: Which Selectivity ratio value belongs to `CN1CCc2cc3c(c4c2[C@H]1Cc1ccccc1-4)OCO3` ?
OUT: 0.8

IN: Which Selectivity ratio value belongs to `COc1cc2c3c(c1OC)-c1ccccc1C[C@H]3N(C)CC2` ?
OUT: 2

###

biological target: 5-hydroxytryptamine receptor 2B (Homo sapiens) (UniProt P41595); assay: Antagonist activity at human 5-HT2B receptor expressed in HEK293 cells assessed as inhibition of serotonin-induced receptor activation preincubated for 15 mins followed by serotonin addition and measured after 1 hr by TGFalpha shedding assay; format: functional, cell-based
Sequence (P41595 whole entry): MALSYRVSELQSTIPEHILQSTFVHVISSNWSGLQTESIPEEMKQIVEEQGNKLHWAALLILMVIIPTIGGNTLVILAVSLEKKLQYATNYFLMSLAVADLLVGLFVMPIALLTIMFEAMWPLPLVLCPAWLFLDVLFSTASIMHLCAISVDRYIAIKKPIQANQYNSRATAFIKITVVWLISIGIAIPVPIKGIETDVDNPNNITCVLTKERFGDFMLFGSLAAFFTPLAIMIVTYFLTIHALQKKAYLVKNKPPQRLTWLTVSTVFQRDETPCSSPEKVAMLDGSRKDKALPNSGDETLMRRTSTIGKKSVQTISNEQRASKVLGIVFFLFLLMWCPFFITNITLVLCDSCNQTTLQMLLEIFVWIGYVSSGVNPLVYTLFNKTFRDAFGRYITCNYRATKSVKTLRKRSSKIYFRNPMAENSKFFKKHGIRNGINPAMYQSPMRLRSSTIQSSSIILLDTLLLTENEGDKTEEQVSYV
Test Readout: pKb
API note: the answer field is a bare number with no unit suffix.

{"columns": ["Compound Smiles", "pKb"],
 "data": [
  ["CN1CCc2cc3c(c4c2[C@@H]1Cc1ccccc1-4)OCO3", 7.03],
  ["COc1cc2c3c(c1OC)-c1ccccc1C[C@@H]3N(C)CC2", 7.38],
  ["CN1CCc2cc3c(c4c2[C@H]1Cc1ccccc1-4)OCO3", 7.08]
]}

Turning now to a further record.
IN: Which pKb value belongs to `COc1cc2c3c(c1OC)-c1ccccc1C[C@H]3N(C)CC2` ?
OUT: 7.51

###

biological target: Alpha-1D adrenergic receptor (Homo sapiens); test: Antagonist activity at human adrenergic alpha1D receptor expressed in HEK293 cells assessed as inhibition of noradrenaline-induced receptor activation preincubated for 15 mins followed by noradrenaline addition and measured after 1 hr by TGFalpha shedding assay
Measured pKb accompanies every entry in the list below.
API note: the answer field is a bare number with no unit suffix.

Known pKb results, listed for orientation:
{"columns": ["Compound Smiles", "pKb"],
 "data": [
  ["CN1CCc2cc3c(c4c2[C@H]1Cc1ccccc1-4)OCO3", 7.34],
  ["COc1cc2c3c(c1OC)-c1ccccc1C[C@H]3N(C)CC2", 6.78]
]}

IN: Reported pKb for Alpha-1D adrenergic receptor (Homo sapiens), given `COc1cc2c3c(c1OC)-c1ccccc1C[C@@H]3N(C)CC2` ?
OUT: 6.94

IN: Reported pKb for Alpha-1D adrenergic receptor (Homo sapiens), given `CN1CCc2cc3c(c4c2[C@@H]1Cc1ccccc1-4)OCO3` ?
OUT: 7.04

###

species on record: Homo sapiens; test: Selectivity ratio of Kb for human 5-HT2B receptor to Kb for human 5-HT2C receptor
Measured Selectivity ratio accompanies every entry in the list below.
API note: the answer field is a bare number with no unit suffix.

{"columns": ["Compound Smiles", "Selectivity ratio"],
 "data": [
  ["COc1cc2c3c(c1OC)-c1ccccc1C[C@H]3N(C)CC2", 1]
]}

IN: Which Selectivity ratio value belongs to `CN1CCc2cc3c(c4c2[C@@H]1Cc1ccccc1-4)OCO3` ?
OUT: 1

IN: Which Selectivity ratio value belongs to `CN1CCc2cc3c(c4c2[C@H]1Cc1ccccc1-4)OCO3` ?
OUT: 6

IN: Which Selectivity ratio value belongs to `COc1cc2c3c(c1OC)-c1ccccc1C[C@@H]3N(C)CC2` ?
OUT: 1

###

Measured Selectivity ratio accompanies every entry in the list below.
species: Homo sapiens; experiment: Selectivity ratio of Kb for human adrenergic alpha1A receptor to Kb for human 5-HT2A receptor
API note: the answer field is a bare number with no unit suffix.

Known Selectivity ratio results, listed for orientation:
{"columns": ["Compound Smiles", "Test Readout", "Observed"],
 "data": [
  ["COc1cc2c3c(c1OC)-c1ccccc1C[C@@H]3N(C)CC2", "Selectivity ratio", 1],
  ["CN1CCc2cc3c(c4c2[C@@H]1Cc1ccccc1-4)OCO3", "Selectivity ratio", 3]
]}

Turning now to a further record.
IN: Which Selectivity ratio value belongs to `CN1CCc2cc3c(c4c2[C@H]1Cc1ccccc1-4)OCO3` ?
OUT: 32
